Assay details: antagonism of maximal electroshock seizures (MES test)
Format: in vivo
Cond: read-out: MES-ED50 (effective dose in 50% of treated animals)
Value type: ED50 (mg/kg)

| Compound | Value type | Experimental result |
| --- | --- | --- |
| CC(NCc1ccc(OCCCCCc2ccccc2)cc1)C(N)=O (stereo not shown) | ED50 | 12.5 |
| NC(=O)C(CO)NCc1ccc(OCCCc2ccccc2)cc1 (stereo not shown) | ED50 | 8.6 |
| CC(NCc1ccc(OCCCCc2ccccc2)cc1)C(N)=O (stereo not shown) | ED50 | 12.4 |
| CC(NCc1ccc(OCCCc2ccccc2)cc1)C(N)=O (stereo not shown) | ED50 | 8.8 |

====

Recorded TD50 for the following molecules
Assay details: in vivo
Experimental: The neurotoxicity of the compound and of the reference anticonvulsants was assessed with the rotorod test (Dunan and Miye., J. Am. Pharm. Ass. Sci. Ed., 1957, 46, 208; Kinnard et al., J. Pharmacol. Exp. Ther. 1957, 121, 354; Horowitz. Nature, 1963, 200, 369). […]

| Molecule | TD50 / mg/kg |
| --- | --- |
| CC(NCc1ccc(OCCCc2ccccc2)cc1)C(N)=O (stereo not shown) | 584 |
| CC(NCc1ccc(OCCCCCc2ccccc2)cc1)C(N)=O (stereo not shown) | 1010 |
| NC(=O)C(CO)NCc1ccc(OCCCc2ccccc2)cc1 (stereo not shown) | 863 |
| CC(NCc1ccc(OCCCCc2ccccc2)cc1)C(N)=O (stereo not shown) | 1000 |

====

Recorded selectivity ratio for the following compounds
Assay details: in vivo
Protocol: The neurotoxicity of the compound and of the reference anticonvulsants was assessed with the rotorod test (Dunan and Miye., J. Am. Pharm. Ass. Sci. Ed., 1957, 46, 208; Kinnard et al., J. Pharmacol. Exp. Ther. 1957, 121, 354; Horowitz. Nature, 1963, 200, 369). […]
Value type: selectivity ratio

| Compound | Experimental result |
| --- | --- |
| CC(NCc1ccc(OCCCCc2ccccc2)cc1)C(N)=O (stereo not shown) | 82 |
| CC(NCc1ccc(OCCCc2ccccc2)cc1)C(N)=O (stereo not shown) | 66 |
| NC(=O)C(CO)NCc1ccc(OCCCc2ccccc2)cc1 (stereo not shown) | 100 |
| CC(NCc1ccc(OCCCCCc2ccccc2)cc1)C(N)=O (stereo not shown) | 81 |
